# tgt: human GLP-1R (Homo sapiens, UniProt P43220)
# Construct: HEK-293T cells overexpressing full-length human GLP-1R; FLAG (N); host or cells: HEK-293T
# Sequence (P43220 24-463): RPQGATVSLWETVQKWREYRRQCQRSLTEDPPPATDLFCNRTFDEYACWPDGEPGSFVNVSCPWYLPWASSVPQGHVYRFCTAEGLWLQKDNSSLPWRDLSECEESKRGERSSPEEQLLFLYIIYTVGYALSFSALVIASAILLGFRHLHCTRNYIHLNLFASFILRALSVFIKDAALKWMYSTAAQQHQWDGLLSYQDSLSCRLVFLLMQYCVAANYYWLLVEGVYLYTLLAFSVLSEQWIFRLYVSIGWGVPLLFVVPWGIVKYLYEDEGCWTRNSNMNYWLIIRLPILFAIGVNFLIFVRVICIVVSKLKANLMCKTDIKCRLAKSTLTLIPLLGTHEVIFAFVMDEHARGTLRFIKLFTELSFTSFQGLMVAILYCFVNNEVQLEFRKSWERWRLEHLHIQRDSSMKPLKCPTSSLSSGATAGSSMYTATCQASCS
# protocolDescription: Human GLP1R agonist activity, intracellular cAMP accumulation
# Format: cell-based
# cond: Human GLP1R cAMP EC50, HEK293T (nM), HEK-293T cells overexpressing human GLP-1R, 1 hr
Positions of bridges follow the written chain, without caps; N, C: chain ends. Non-standard residues stand in square brackets, D forms with d. Chains are numbered I, II in the order given. *: point of attachment. C18 diacid = O=C(O)CCCCCCCCCCCCCCCCC(=O)*; NMeY = CN[C@@H](Cc1ccc(O)cc1)C(=O)O; Aib = CC(C)(N)C(=O)O
assayReadout: EC50 (nM)
// note: answer is a bare numeric in nM

INSERT INTO measurements (substance, tgt, assayreadout, val) VALUES
  ('I: H-[NMeY][Aib]EGTFISDYSIAKDR[Aib]AQ[Aib]DFVNWLLAQSPSSGAPPPS-OH / II: {C18 diacid}-PAPAPGG (amide I:14-II:C) [Compound 105]', 'human GLP-1R (Homo sapiens, UniProt P43220)', 'EC50', 562);

Let's switch to this substance now.
Challenge: Requested read-out: EC50. Entry: I: H-[NMeY][Aib]EGTFISDYSIALDR[Aib]AQ[Aib]KFVNWLLAQSPSSGAPPPS-OH / II: {C18 diacid}-PAPAPGG (amide I:21-II:C) [Compound 103]
Response given: 29.5
